The values you see were collected from patent US6492419B1.

- protocol.text: Tissue residues after aqueous pour-on, cattle
- Assay type: in vivo
- protocol.conditions: bovine, peri-renal fat, topical, 15 mg/kg pour-on, 1 day post treatment, LOQ = 0.02 mg/kg, read-out: Level of diflubenzuron residues in fat tissues, Peri-renal fat
assay.endpoint: concentration at 1 day

INPUT: Query: concentration at 1 day; subject: "O=C(NC(=O)c1c(F)cccc1F)Nc1ccc(Cl)cc1"
OUTPUT: 170 ng/g

====

- protocol.text: Tissue residues after aqueous pour-on, cattle
- Assay type: in vivo
- protocol.conditions: bovine, peri-renal fat, topical, 15 mg/kg pour-on, 3 days post treatment, LOQ = 0.02 mg/kg, read-out: Level of diflubenzuron residues in fat tissues, Peri-renal fat
assay.endpoint: concentration at 3 days
Remember to quote the unit after the number.

INPUT: Query: concentration at 3 days; subject: "O=C(NC(=O)c1c(F)cccc1F)Nc1ccc(Cl)cc1"
OUTPUT: 90 ng/g
